B1: Far upstream element-binding protein 2, residues 142 to 214; numbered along this chain, Q92945 (parent)
chain: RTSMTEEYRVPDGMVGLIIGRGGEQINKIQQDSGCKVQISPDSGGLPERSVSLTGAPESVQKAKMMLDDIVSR

- Variants of: B1
- METHOD: abundance fitness (aPCA) (normalised: wild type 0, dead -1); higher = more abundant; growth selection in yeast, the domain comes from the species named
- CONDITIONS USED: Homo sapiens
METRIC: abundance fitness

# MUTANT LABEL, METRIC, VALUE
records = [
    ("K62D", "abundance fitness", -0.663),
    ("Q30A", "abundance fitness", -0.067),
    ("G22H", "abundance fitness", -0.234),
    ("T54Y", "abundance fitness", 0.028),
    ("M65Q", "abundance fitness", 0.131),
    ("S43Y", "abundance fitness", -0.189),
    ("D68H", "abundance fitness", -0.241),
    ("M65H", "abundance fitness", -0.066),
    ("S52G", "abundance fitness", -0.249),
    ("K62H", "abundance fitness", -0.231),
    ("K28V", "abundance fitness", -0.419),
]
